# system tested: recombinant eIF4E (Homo sapiens (Human), UniProt P06730)
# Sequence (P06730 whole entry): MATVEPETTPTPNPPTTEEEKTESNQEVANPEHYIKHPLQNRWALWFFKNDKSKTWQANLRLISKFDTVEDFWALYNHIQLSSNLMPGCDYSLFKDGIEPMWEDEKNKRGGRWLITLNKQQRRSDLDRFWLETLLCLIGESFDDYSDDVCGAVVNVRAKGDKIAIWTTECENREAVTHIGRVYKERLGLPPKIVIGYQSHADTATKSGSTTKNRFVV
# experiment summary: Fluorescence polarization competition assay for eIF4E binding potency
# condition description: inhibition of eIF4E/EDA-m7GDP-ATTO-550 binding by 50%; Table 4B calculated values; read-out: IC50
quantity kind: IC50 (nM)

molecule: Cc1cc(-c2cc(Cl)ccc2OCCn2c(C)nc3cc(Cl)c(N4CCCC4(C)C)c(C#N)c3c2=O)c2scc(C(=O)O)c2n1
quantity kind: IC50
assay value: 5.76
//
molecule: Cc1cc(-c2cc(Cl)ccc2OCCn2c(C)nc3cnc(N4CC(OCC(F)(F)F)C4)c(C#N)c3c2=O)c2scc(C(=O)O)c2n1
quantity kind: IC50
assay value: 5.31
//
molecule: CCN(CC)S(=O)(=O)c1ccc2nc(C)n(CCOc3ccc(Cl)cc3-c3ccnc4c(C(=O)O)csc34)c(=O)c2c1C#N
quantity kind: IC50
assay value: 43.7
//
molecule: Cc1nc2cnc(N3CC4(CN(CCF)C4)C3)c(C#N)c2c(=O)n1CC#Cc1ccc(Cl)cc1-c1ccnc2c(C(=O)O)csc12
quantity kind: IC50
assay value: 36
//
molecule: Cc1cc(-c2cc(Cl)ccc2OCCn2c(C)nc3c(C)nc(N4CCC(O)C4)c(C#N)c3c2=O)c2scc(C(=O)O)c2n1 (stereo not shown)
quantity kind: IC50
assay value: 4.19
//
molecule: COc1ccc(C#N)c2c(=O)n(CCOc3ccc(Cl)cc3-c3ccnc4c(C(=O)O)csc34)c(C)nc12
quantity kind: IC50
assay value: 12.6
//
molecule: CCN(c1ncc2nc(C)n(CC#Cc3ccc(Cl)cc3-c3ccnc4c(C(=O)O)csc34)c(=O)c2c1C#N)C1CCN(CC(F)(F)F)CC1
quantity kind: IC50
assay value: 34.3
//
molecule: Cc1cc(-c2cc(Cl)ccc2OCCn2c(C)nc3cc(C(F)(F)F)c(N4CCN(C)CC4)cc3c2=O)c2scc(C(=O)O)c2n1
quantity kind: IC50
assay value: 25

a = Cc1cc(-c2nc(C)c3nc(C)n(CCOc4ccc(Cl)cc4-c4cc(C)nc5c(C(=O)O)csc45)c(=O)c3c2C#N)ccn1
b = Cc1cc(-c2cc(Cl)ccc2OCCn2c(C)nc3cnc(N4CCN(C)CC4)c(C#N)c3c2=O)c2sccc2n1
Hi, I'm comparing a with b and wondering which one has the bigger number for IC50. Any idea? Mark your selection by writing its label.
b

P = Cc1c(CC#Cc2ccc(Cl)cc2-c2ccnc3c(C(=O)O)csc23)c(=O)c2c(C#N)cc(C(F)(F)F)cc2n1C
Q = Cc1cc(-c2cc(Cl)ccc2OCCn2c(C)nc3cc(N4C[C@@H](C)N(C)[C@@H](C)C4)c(F)c(C#N)c3c2=O)c2sc(C)c(C(=O)O)c2n1 [1090b]
R = Cc1nc2cc(C(F)(F)F)c(CN3CCCC3)c(C#N)c2c(=O)n1CCOc1ccc(Cl)cc1-c1ccnc2c(C(=O)O)csc12
Rank the items in ascending order with respect to IC50. List the labels according to the requested ordering.
P, R, Q

###

# system tested: recombinant eIF4E (Homo sapiens (Human))
# experiment summary: Fluorescence polarization competition assay for eIF4E binding potency
# condition description: fluorescence polarization competition, 75 nM recombinant eIF4E, 20 nM EDA-m7GDP-ATTO-550; IC50 class; read-out: elF4E FP
# Description: Compounds were screened for eIF4E binding potency using a fluorescence polarization competition assay. All binding reactions were performed in fluorescence polarization buffer (FPB) containing 20 mM Tris pH 7.5, 100 mM NaCl, 1 mM DTT, and 0.02% Tween-20. Final binding reactions contained 75 nM recombinant eIF4E (Beryllium, custom order), 20 nM EDA-m^7GDP-ATTO-550 (Jena Bioscience, NU-827-550) and varying concentrations of the inhibitory compound of interest. […]
quantity kind: IC50

Some compounds with known IC50 results, for comparison:
compound: Cc1cc(-c2cc(Cl)ccc2OCCn2c(C)nc3cc(C(F)(F)F)c(-c4ccc(C)c(C)n4)c(C#N)c3c2=O)c2scc(C(=O)O)c2n1
IC50: < 50 nM

compound: Cc1cc(-c2cc(Cl)ccc2OCCn2c(C)nc3cc(N(C)C)c(-c4ccccc4)c(C#N)c3c2=O)c2scc(C(=O)O)c2n1
IC50: < 50 nM

Need IC50 of `N#Cc1ncc(CCOc2ccc(Cl)cc2-c2cccc(C(=O)O)c2)c2c(=O)[nH]c(Nc3ccccc3)nc12` , thanks.
< 50 nM

Need IC50, item `N#Cc1cccc2nc(C(F)F)n(CCOc3ccc(Cl)cc3-c3ccc(C(=O)O)c4cnsc34)c(=O)c12`
50 to 1000 nM

Consider the compound shown here: `CCc1cc(-c2cc(Cl)ccc2OCCn2c(C)nc3cnc(CC)c(C#N)c3c2=O)c2scc(C(=O)O)c2n1` What is its recorded IC50?
< 50 nM
